# Target desc: Large T antigen (Simian virus 40, UniProt P03070);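 note: Confirmatory-stage PubChem screen for compounds that inhibit SV40 T antigen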
# Sequence (P03070 whole entry): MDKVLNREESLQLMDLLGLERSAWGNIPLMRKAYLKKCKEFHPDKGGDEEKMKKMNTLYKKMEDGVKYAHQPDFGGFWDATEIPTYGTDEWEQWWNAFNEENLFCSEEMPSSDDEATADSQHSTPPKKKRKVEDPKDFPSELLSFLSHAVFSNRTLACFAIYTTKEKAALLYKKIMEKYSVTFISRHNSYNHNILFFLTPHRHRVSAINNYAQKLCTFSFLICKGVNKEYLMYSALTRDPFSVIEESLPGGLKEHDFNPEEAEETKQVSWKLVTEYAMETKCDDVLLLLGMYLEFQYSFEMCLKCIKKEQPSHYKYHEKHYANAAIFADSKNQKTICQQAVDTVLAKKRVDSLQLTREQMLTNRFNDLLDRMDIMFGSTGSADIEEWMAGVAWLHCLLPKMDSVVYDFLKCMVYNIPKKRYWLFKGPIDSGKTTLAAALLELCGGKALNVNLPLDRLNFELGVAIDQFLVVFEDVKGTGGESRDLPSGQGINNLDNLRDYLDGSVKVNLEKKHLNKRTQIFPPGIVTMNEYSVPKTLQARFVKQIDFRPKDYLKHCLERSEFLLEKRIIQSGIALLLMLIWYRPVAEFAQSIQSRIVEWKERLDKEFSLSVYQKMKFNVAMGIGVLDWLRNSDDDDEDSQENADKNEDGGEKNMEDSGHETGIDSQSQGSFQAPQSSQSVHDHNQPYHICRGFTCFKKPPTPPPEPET
# Format: functional, Betapolyomavirus macacae
The source made the active and inactive calls.
Provide the recorded IC50 for the entries that follow.

Lookup result for Oc1[nH]c(S)nc2nc(S)nc1-2 ; measured IC50: 27.2 µM (active)

Lookup result for O=C(N/N=C/c1ccc(O)c(O)c1)c1ccc(CSc2cccc3cccnc23)cc1 ; measured IC50: 5.43 µM (active)

Lookup result for COc1ccc2c(c1)-c1nc(/N=C/c3ccc(O)c(OC)c3)sc1CC2 ; measured IC50: 15.5 µM (active)

Lookup result for Cc1nc2ncccn2c1-c1csc(Nc2ccc(N(C)C)cc2)n1 ; measured IC50: 6.91 µM (active)

Lookup result for CNC(=O)Oc1ccc2ncccc2c1 ; measured IC50: > 100 µM (active)

Lookup result for O=c1cc(-c2ccc(O)cc2)oc2cc(O)c(C3OC(CO)C(O)C(O)C3O)c(O)c12 (stereo unspecified) ; measured IC50: 21.4 µM (active)

Lookup result for COc1cc(/C=N/n2c(S)nnc2-c2[nH]nc3c2CCC3)cc(OC)c1O ; measured IC50: 24 µM (active)

Lookup result for Oc1ccc(NCc2cccs2)cc1 ; measured IC50: 28.7 µM (active)

Lookup result for C=CCn1c(=S)[nH]c2scc(-c3ccco3)c2c1=O ; measured IC50: 24.1 µM (active)

Lookup result for Nc1cc(S(=O)(=O)c2ccc(O)c(N)c2)ccc1O ; measured IC50: 20.5 µM (active)

Lookup result for COc1ccc(N2C(=O)/C(=C/c3ccc(C)o3)C(=O)NC2=S)c(OC)c1 ; measured IC50: 34.3 µM (active)

----------
Provide the recorded IC50 for the entries that follow.
# Target desc: Polyadenylate-binding protein 1 (Homo sapiens)
# Sequence (P11940 whole entry): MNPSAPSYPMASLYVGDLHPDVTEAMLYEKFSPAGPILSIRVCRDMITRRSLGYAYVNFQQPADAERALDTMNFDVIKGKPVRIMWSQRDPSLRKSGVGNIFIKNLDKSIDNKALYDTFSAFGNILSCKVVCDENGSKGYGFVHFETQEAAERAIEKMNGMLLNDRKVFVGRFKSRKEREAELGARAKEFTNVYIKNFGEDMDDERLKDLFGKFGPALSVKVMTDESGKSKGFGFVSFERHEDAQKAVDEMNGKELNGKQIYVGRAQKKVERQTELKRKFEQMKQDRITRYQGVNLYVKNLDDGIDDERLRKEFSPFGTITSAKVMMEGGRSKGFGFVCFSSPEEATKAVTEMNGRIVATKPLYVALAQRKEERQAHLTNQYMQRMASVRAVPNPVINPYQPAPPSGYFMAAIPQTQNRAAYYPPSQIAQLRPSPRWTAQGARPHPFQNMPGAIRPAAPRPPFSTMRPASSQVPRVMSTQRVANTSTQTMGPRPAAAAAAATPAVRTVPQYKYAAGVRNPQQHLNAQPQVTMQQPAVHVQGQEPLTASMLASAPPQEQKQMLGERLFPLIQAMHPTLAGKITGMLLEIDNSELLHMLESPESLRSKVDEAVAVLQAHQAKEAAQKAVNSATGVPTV
# Assay method text: PABP1 MLLE–PAM2 binding inhibitor potency, dose response, biochemical, fluorescence polarization, FITC-PAM2 peptide (AID 602259)
# Format: functional
# Run conditions: read-out: IC50_Mean
Active and inactive are the calls of the source.

Lookup result for Cc1ccc(SC2CC(=O)N(c3ccc4c(c3)OCCO4)C2=O)cc1 (centres undefined) ; measured IC50: > 66 µM (inactive)

Lookup result for CCOC(=O)c1c(C)oc2c1c(/C=N/CCO)c(O)c1ccccc12 ; measured IC50: > 66 µM (inactive)

Lookup result for O=[N+]([O-])c1ccc(-c2nc(=S)c3c(o2)CCCC3)cc1 ; measured IC50: > 66 µM (inactive)

Lookup result for Cc1ccc(NC(=O)CC2SC(=O)N(c3ccccc3)C2=O)cc1 (centres undefined) ; measured IC50: > 66 µM (inactive)

Lookup result for CC(=O)C(Sc1nccc(-c2cccs2)n1)C(C)=O ; measured IC50: > 66 µM (inactive)

Lookup result for CCN(CC)C(=O)CSc1nnc2nnc3cc(Cl)ccc3n12 ; measured IC50: 34.4 µM (inactive)

Lookup result for COc1ccc2c3c(cccc13)C(=O)N(O)C2=O ; measured IC50: 35.2 µM (inactive)

Lookup result for Cc1cc2cc(CNC(=O)c3cccs3)ccc2n1C ; measured IC50: > 66 µM (inactive)

Lookup result for Cc1cc2cc(CNC(=O)Cc3ccc([N+](=O)[O-])cc3)ccc2n1C ; measured IC50: > 66 µM (inactive)

----------
# Target desc: UniProt Q9HC16
# Sequence (Q9HC16 whole entry): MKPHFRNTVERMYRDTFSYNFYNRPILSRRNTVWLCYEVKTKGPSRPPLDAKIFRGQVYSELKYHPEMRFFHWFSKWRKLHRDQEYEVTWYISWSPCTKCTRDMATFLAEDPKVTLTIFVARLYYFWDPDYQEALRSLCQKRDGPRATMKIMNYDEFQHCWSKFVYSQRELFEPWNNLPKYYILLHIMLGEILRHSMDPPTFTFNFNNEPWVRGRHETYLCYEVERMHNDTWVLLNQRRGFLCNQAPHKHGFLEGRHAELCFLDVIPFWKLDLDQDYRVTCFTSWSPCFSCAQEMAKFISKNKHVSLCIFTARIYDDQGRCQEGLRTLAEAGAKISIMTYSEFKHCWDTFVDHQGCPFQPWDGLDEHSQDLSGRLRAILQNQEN
# Assay method text: Dose Response confirmation of small molecule APOBEC3G DNA Deaminase Inhibitors via a fluorescence-based single-stranded DNA deaminase assay. [Related pubchem assays (depositor defined):AID493012, AID493028]
# Assay type: functional
The source made the active and inactive calls.
Provide the recorded IC50 for the entries that follow.

Lookup result for C=C(C)C(=O)Nc1cccc(C2=NOC3(C2)C[C@@H](C(N)=O)N(C(=O)c2cc([N+](=O)[O-])cc([N+](=O)[O-])c2C)C3)c1 (some centres undefined) ; measured IC50: 14 µM (active)

Lookup result for COc1cc(/C=N/n2c(S)nnc2-c2[nH]nc3c2CCC3)cc(OC)c1O ; measured IC50: 1.81 µM (active)

Lookup result for Cc1nnc(S)n1/N=C/c1c(O)ccc2ccccc12 ; measured IC50: 2.42 µM (active)

Lookup result for C=C(C)C(=O)Nc1cccc(C2=NOC3(C2)C[C@H](C(N)=O)N(C(=O)c2ccccc2)C3)c1 (some centres undefined) ; measured IC50: 14.3 µM (active)

----------
AC50 data for Cytochrome P450 2D6 (Homo sapiens) follow.

Lookup result for CC(NC(=O)c1cccc(F)c1)C(c1cccs1)N1CCN(C)CC1 (stereo not drawn) ; measured AC50: 15.8 µM (inconclusive)

Lookup result for O=C(/C=C\C=C/c1ccc2c(c1)OCO2)N1CCCCC1 ; measured AC50: 12.6 µM (inconclusive)

Lookup result for O=C(c1sc2ccccc2c1Cl)N(Cc1ccccc1)C1CCS(=O)(=O)C1 (stereo not drawn) ; measured AC50: 14.1 µM (inconclusive)

Lookup result for COCOc1ccc(Br)cc1C(=O)[C@H]1O[C@H]1c1cccc(OC)c1 ; measured AC50: 3.16 µM (inconclusive)

Lookup result for Cc1sc(NC(=O)c2ccco2)c(C(c2cccnc2)N2CCN(C)CC2)c1C (stereo not drawn) ; measured AC50: 12.6 µM (inconclusive)

Lookup result for O=C1[C@@H]2[C@@H](C(=O)N1c1ccc(OCc3ccccc3)cc1)[C@@H]1c3ccccc3[C@@H]2[n+]2ccccc21 ; measured AC50: 3.98 µM (inconclusive)

Lookup result for Nc1cc(-c2ccncc2)c[nH]c1=O ; measured AC50: 12.6 µM (inconclusive)

Lookup result for Oc1ccc(C2Nc3cccc4cccc(c34)N2)c(O)c1 ; measured AC50: 25.1 µM (inconclusive)

Lookup result for ON(CCc1ccncc1)Cc1ccccc1 ; measured AC50: 6.31 µM (inconclusive)

Lookup result for CO/N=C(/CNC(=O)c1cccc(Cl)c1)c1ccc(Cl)cc1 ; measured AC50: 25.1 µM (inconclusive)

Lookup result for FC(F)(F)c1ccccc1-c1cc(NCCN2CCOCC2)ncn1 ; measured AC50: 39.8 µM (inconclusive)

Lookup result for COc1cccc(-c2noc(-c3cccnc3)n2)c1 ; measured AC50: 20 µM (inconclusive)

Lookup result for Cc1cc(NC(=O)c2c(F)cccc2F)n(-c2nc3ccccc3[nH]2)n1 ; measured AC50: 39.8 µM (inconclusive)

Lookup result for COc1ccc2[nH]cc(CCN(C)C)c2c1 ; measured AC50: 20 µM (inconclusive)

Lookup result for COCCn1c(=O)c(-c2ccc(F)cc2)nc2cnc(N(C)C)nc21 ; measured AC50: 0.631 µM (inconclusive)

Lookup result for CCC(=O)Nc1cccc(-c2nnc(-c3cccc(NC(=O)CC)c3)o2)c1 ; measured AC50: 17.8 µM (inconclusive)

Lookup result for CC#CCCCC(=O)Nc1cc(OC)nc(OC)n1 ; measured AC50: 15.8 µM (inconclusive)

Lookup result for O=C(Oc1ccc([N+](=O)[O-])cc1)N1CCC(N2CCCCC2)CC1 ; measured AC50: 39.8 µM (inconclusive)

----------
# Tested on: H9c2;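 note: cell death induced by hydrogen peroxide oxidative stress; compound pretreatment for 60 min then peroxide exposure for 2 h; potency is for protecting the cells against peroxide damage rather than for killing them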;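 note: confirmatory concentration-response retest of ultra-high-throughput screening hits for modulation of myocardial damage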
# Assay method text: cells
# Type: functional, cell-based
# Run conditions: Rattus norvegicus, H9c2, Myocardium
Calls of active or inactive are those of the source.
Provide the recorded IC50 for the entries that follow.

Lookup result for COc1ccc(NS(=O)(=O)c2cc(NC(=O)Cc3nnc(O)c4ccccc34)ccc2OC)cc1 ; measured IC50: > 79 µM (inactive)

Lookup result for COc1ccc(CCNC(=O)C(=O)NCC2CCCN2S(=O)(=O)c2cc(C)ccc2C)cc1 (stereo unspecified) ; measured IC50: 34.1 µM (inactive)

Lookup result for O=C(Nc1ccc2c(c1)OCO2)c1cnn2c(C(F)(F)F)cc(-c3ccco3)nc12 ; measured IC50: > 79 µM (inactive)

Lookup result for O=C(NC1CCCCC1)C(c1ccc2ncccc2c1)N(Cc1cccs1)C(=O)c1cccs1 (stereo unspecified) ; measured IC50: > 79 µM (inactive)

Lookup result for CCC(=O)Nc1cccc(-c2nnc(-c3cccc(NC(=O)CC)c3)o2)c1 ; measured IC50: > 79 µM (inactive)

Lookup result for O=P(Nc1ccccc1)(Oc1ccccc1)Oc1ccccc1 ; measured IC50: > 79 µM (inactive)

----------
# Target desc: Genome polyprotein (dengue virus type 2)
# Assay method text: Dengue-2 NS5 methyltransferase inhibitors, primary screen, biochemical, confirmation dose response (AID 588689)
# Format: functional
Activity calls are given as the source filed them.
Provide the recorded IC50 for the entries that follow.

Lookup result for Cc1oc2c(C)c3oc(=O)c(CC(=O)N[C@@H](CC(C)C)C(=O)N[C@@H](Cc4ccccc4)C(=O)O)c(C)c3cc2c1C ; measured IC50: 72.6 µM (active)

Lookup result for CC(C)c1ccc(S(=O)(=O)c2nnn3c2nc(O)c2ccccc23)cc1 ; measured IC50: 51.5 µM (active)

Lookup result for Cc1ccc(S(=O)(=O)NN2C(=O)/C(=C/c3cccc(F)c3)SC2=S)cc1 ; measured IC50: 27.2 µM (active)

Lookup result for CCc1ccc([C@@H]2CC=C(C(=O)O)[C@H](c3ccc(C(C)(C)C)cc3)N2S(=O)(=O)c2ccc(C)cc2)cc1 ; measured IC50: 37 µM (active)

Lookup result for Cc1ccc(N2C(=O)C(Cl)=C(N3CCN(C)CC3)C2=O)c(C)c1 ; measured IC50: 40.5 µM (active)
